Origin of the recorded values: PubChem BioAssay (NCI)

assay: NCI Yeast Anticancer Drug Screen. Data for the cln2 rad14 strain (AID 165);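 further: 0% = growth equal to vehicle treated cultures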; details: S. cerevisiae cln2 rad14 strain, at 50.0 µM
Compounds without any hit were thinned out: in the full panel of roughly 79,000, 15% have a hit. Activity calls are given as the source filed them. No stated cut-off is given here; in the data, active means growth inhibition above about 70%; inactive means the rest.
Hello, when you answer, please use one of the following outcomes: active, inactive

COMPOUND | GROUP LABEL
CC1(C)N=C(N)N=C(N)N1c1ccc(CCC(=O)Nc2cccc(S(=O)(=O)F)c2)c(Cl)c1 | inactive
ClCCN(CCCl)c1ccc(CCCCN2CCCCC2)cc1 | inactive
O=C(Nc1ncn[nH]1)C(Cl)(Cl)Cl | inactive
CCOP(=O)(OCC)/C(C#N)=C/c1nccn1C | inactive
O=S1(=O)CC2(N3CCOCC3)C3CCC(C3)C21 (stereo not drawn) | inactive
O=NC1C(=O)NC(=O)NC1=O | inactive

[Q] Name the outcome recorded for c1ccc(CCN2CCCCC2)nc1 in the assay.
[A] inactive

[Q] Name the outcome recorded for CNCCc1ccc(O)c2ccc3ccc(OC)c(O)c3c12 in the assay.
[A] inactive

[Q] Name the outcome recorded for Cc1cc(O)c2c(c1)OC(C)(C)C1=C2CC(C)CC1 (stereo not drawn) in the assay.
[A] inactive

[Q] Name the outcome recorded for C[Si]1(C)CCCC2(C1)C(=O)NC(=O)NC2=O in the assay.
[A] inactive

[Q] Name the outcome recorded for CC(=O)[O][Sn]([CH2]C1CCCC1)([CH2]C1CCCC1)[CH2]C1CCCC1 in the assay.
[A] active

[Q] Name the outcome recorded for CC(=O)Nc1ccc(Cl)cc1 in the assay.
[A] inactive

[Q] Name the outcome recorded for Cc1ccc(-c2cc(C)n(C)[n+]2C)cc1 in the assay.
[A] inactive

[Q] Name the outcome recorded for Clc1ccc(N=c2ccc3ccccc3[oH+]2)cc1.Clc1ccc(N=c2ccc3ccccc3[oH+]2)cc1.[Co] in the assay.
[A] inactive

[Q] Name the outcome recorded for CN1[C@@H](CC(=O)c2ccccc2)CCC[C@H]1CC(=O)c1ccccc1 in the assay.
[A] inactive

[Q] Name the outcome recorded for CC(C)CC1C(=O)NCCC(NC(=O)C(N)Cc2ccc(O)cc2)C(=O)NC(Cc2ccccc2)C(=O)NC(Cc2ccccc2)NC1=O (stereo not drawn) in the assay.
[A] inactive

[Q] Name the outcome recorded for CC(C)N=Cc1ccccc1O.CC(C)N=Cc1ccccc1O.[Ni] in the assay.
[A] inactive

[Q] Name the outcome recorded for O=Cc1ccccc1O.[Nd] in the assay.
[A] inactive

[Q] Name the outcome recorded for COC(=O)CCc1ccc(NP(=O)(Oc2ccccc2)N(CCCl)CCCl)cc1 (stereo not drawn) in the assay.
[A] inactive

[Q] Name the outcome recorded for CC(C)C(Br)C(=O)O (stereo not drawn) in the assay.
[A] inactive

[Q] Name the outcome recorded for O=S(=O)(F)c1cccc(Cl)c1C[P+](c1ccccc1)(c1ccccc1)c1ccccc1 in the assay.
[A] inactive

[Q] Name the outcome recorded for CC(=O)O[C@H]1CC[C@]2(C)C3=C([C@@H](OO)C[C@H]2C1(C)C)[C@]1(C)CC[C@H]([C@H](C)CCCC(C)C)[C@@]1(C)CC3 in the assay.
[A] inactive

[Q] Name the outcome recorded for CC1CC(C)(C)[N+](C)(CCC(C(N)=O)(c2ccccc2)c2ccccc2)C1 (stereo not drawn) in the assay.
[A] inactive

###

assay: NCI Yeast Anticancer Drug Screen. Data for the rad50 strain (AID 155);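 further: 0% = growth of vehicle-only cultures of the same strain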; conditions: S. cerevisiae rad50 strain growth inhibition; at 50.0 µM; active compounds read high
This is part of a sample that, as a whole, favours compounds with a hit. Of some 79,000 tested, about 15% had one in any assay.
READOUT LABEL: growth inhibition (%)
Expressed in %, but write only the number.

Some entries whose results are on file:
MOLECULE | UNIT OF MEASUREMENT | RESULT VALUE
O=C1NCCCC1(Cl)Cl | % | 4.75
CCCCOP(=O)(Cc1ccccc1)Oc1ccccc1 (stereo not given) | % | 73
CN(C)NP(=O)(c1ccccc1)c1ccccc1 | % | 0.05
CC(=O)Nc1ccc(-c2ccccc2)cc1 | % | 39.7

[Q] Item C[Si]1(C)CCCC2(C1)C(=O)NC(=O)NC2=O : provide growth inhibition
[A] -31.6

[Q] Item CC[C@@H]1[C@H]2C[C@H]3[C@@H]4N(C)c5ccccc5[C@]45C[C@@H](C2[C@H]5O)N3[C@H]1O (stereo not given in full) : provide growth inhibition
[A] -12.4

[Q] Item [C-]#[O+].[C-]#[O+].[C-]#[O+].[Cr].c1ccc([PH+](CC[As](c2ccccc2)c2ccccc2)CC[As](c2ccccc2)c2ccccc2)cc1 : provide growth inhibition
[A] 5.45

[Q] Item COC(=O)C(Cl)Cl : provide growth inhibition
[A] 9.2

[Q] Item O=CC1(c2ccccc2)CCNCC1 : provide growth inhibition
[A] -0.95

[Q] Item CCCCCCNC1C=CCC1 (stereo not given) : provide growth inhibition
[A] -5.75

[Q] Item CCCCCCCC(N)CC(=O)O (stereo not given) : provide growth inhibition
[A] -24.2

[Q] Item Cc1ccc(OP(=O)(Oc2ccc(C)cc2)Oc2ccc(C)cc2)cc1.Cc1ccc(OP(=O)(Oc2ccc(C)cc2)Oc2ccc(C)cc2)cc1.[Cl][Ni][Cl] : provide growth inhibition
[A] 23.5

[Q] Item N#CCCO : provide growth inhibition
[A] -7.35
